# System Name: EGFR L858R/C797S (Homo sapiens, UniProt P00533, C797S/L858R)
# Sequence (P00533 25-1210 C797S/L858R): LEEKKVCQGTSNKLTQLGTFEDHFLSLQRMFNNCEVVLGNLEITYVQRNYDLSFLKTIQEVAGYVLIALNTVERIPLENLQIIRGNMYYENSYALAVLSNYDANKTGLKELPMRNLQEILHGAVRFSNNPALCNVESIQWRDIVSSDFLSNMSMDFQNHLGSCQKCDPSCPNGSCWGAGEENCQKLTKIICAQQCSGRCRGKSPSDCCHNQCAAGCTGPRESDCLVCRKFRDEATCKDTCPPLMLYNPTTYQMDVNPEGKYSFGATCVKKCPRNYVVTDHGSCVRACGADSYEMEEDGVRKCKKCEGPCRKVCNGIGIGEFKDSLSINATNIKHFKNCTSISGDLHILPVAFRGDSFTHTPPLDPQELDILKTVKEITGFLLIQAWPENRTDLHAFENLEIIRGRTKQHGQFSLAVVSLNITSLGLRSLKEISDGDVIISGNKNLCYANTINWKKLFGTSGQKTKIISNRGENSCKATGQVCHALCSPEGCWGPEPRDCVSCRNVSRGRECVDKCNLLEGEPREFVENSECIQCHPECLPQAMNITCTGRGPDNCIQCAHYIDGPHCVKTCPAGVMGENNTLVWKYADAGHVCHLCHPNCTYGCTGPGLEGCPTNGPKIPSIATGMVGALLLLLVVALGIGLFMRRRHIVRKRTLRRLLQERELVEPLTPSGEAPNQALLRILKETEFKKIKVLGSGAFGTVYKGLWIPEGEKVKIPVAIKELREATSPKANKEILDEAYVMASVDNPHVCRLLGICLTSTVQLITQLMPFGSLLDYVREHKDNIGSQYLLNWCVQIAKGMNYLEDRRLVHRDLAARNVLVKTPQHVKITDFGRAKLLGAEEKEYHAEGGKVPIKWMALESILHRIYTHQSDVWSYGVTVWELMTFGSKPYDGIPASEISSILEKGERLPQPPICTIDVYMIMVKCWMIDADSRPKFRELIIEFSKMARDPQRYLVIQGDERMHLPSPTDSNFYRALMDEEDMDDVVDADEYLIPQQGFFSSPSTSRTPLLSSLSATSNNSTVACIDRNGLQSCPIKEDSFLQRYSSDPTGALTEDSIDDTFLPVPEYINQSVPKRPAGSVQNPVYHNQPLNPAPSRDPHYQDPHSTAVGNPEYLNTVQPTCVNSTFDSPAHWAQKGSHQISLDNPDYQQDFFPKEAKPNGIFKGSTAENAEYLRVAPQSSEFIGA
# Protocol: Biochemical EGFR kinase assay (Lance Ultra TR-FRET), double mutant L858R/C797S
# Setup Conditions: IC50 L858R/C797S (nM) 100 μM ATP, 100 μM ATP
# Description: Biochemical EGFR kinase assays were conducted using Lance Ultra time-resolved fluorescence resonance energy transfer (TR-FRET) technology from Perkin-Elmer. […] Each kinase reactions were incubated at room temperature for 1 hour and then stopped by the addition of 4 μL of stop solution (10 mM EDTA). […] After 60 minutes incubation at room temperature the LANCE signal was measured on an EnVision Multilabel Reader (Perkin-Elmer). […]
Reported values of IC50 for individual entries
Value Type: IC50

{"Chemical Smiles": "O=S(=O)(C1CC1)n1cc(-c2nccc(Nc3cc(N[C@H]4CC[C@@H](CO)CC4)c(-c4cnc(N5CCC(F)(F)CC5)cn4)cn3)n2)cn1", "System Name": "EGFR L858R/C797S (Homo sapiens, UniProt P00533, C797S/L858R)", "Result": "81.1 nM"}
{"Chemical Smiles": "CC(C)(O)c1ccc(-c2cnc(Nc3ccnc(-c4cnn(S(=O)(=O)C5CC5)c4)n3)cc2N[C@H]2CC[C@@H](CO)CC2)nn1", "System Name": "EGFR L858R/C797S (Homo sapiens, UniProt P00533, C797S/L858R)", "Result": "4.7 nM"}
{"Chemical Smiles": "O=S(=O)(C1CC1)n1cc(-c2nccc(Nc3cc(N[C@H]4CC[C@@H](CO)CC4)c(-c4cc(CN5CCC(F)(F)CC5)ccn4)cn3)n2)cn1", "System Name": "EGFR L858R/C797S (Homo sapiens, UniProt P00533, C797S/L858R)", "Result": "20.8 nM"}
{"Chemical Smiles": "COC1CN(c2ccc(-c3cnc(Nc4ccnc(-c5cnn(S(=O)(=O)C6CC6)c5)n4)cc3N[C@H]3CC[C@@](C)(O)CC3)nc2)C1", "System Name": "EGFR L858R/C797S (Homo sapiens, UniProt P00533, C797S/L858R)", "Result": "15.1 nM"}
{"Chemical Smiles": "CN1CCN(Cc2cccc(-c3cnc(Nc4ccnc(-c5cnn(S(=O)(=O)C6CC6)c5)n4)cc3N[C@H]3CC[C@@](C)(O)CC3)n2)CC1", "System Name": "EGFR L858R/C797S (Homo sapiens, UniProt P00533, C797S/L858R)", "Result": "1.6 nM"}
{"Chemical Smiles": "C[C@]1(O)CC[C@@H](Nc2cc(Nc3ccnc(-c4cnn(S(=O)(=O)C5CC5)c4)n3)ncc2-c2ccc(CN3CCC(F)(F)CC3)cn2)CC1", "System Name": "EGFR L858R/C797S (Homo sapiens, UniProt P00533, C797S/L858R)", "Result": "29.3 nM"}
{"Chemical Smiles": "C[C@]1(O)CC[C@@H](Nc2cc(Nc3ccnc(-c4cnn(S(=O)(=O)C5CC5)c4)n3)ncc2-c2cc(N3CCC(F)(F)CC3)ccn2)CC1", "System Name": "EGFR L858R/C797S (Homo sapiens, UniProt P00533, C797S/L858R)", "Result": "29.9 nM"}
{"Chemical Smiles": "CN(C)Cc1ccc(-c2cnc(Nc3ccnc(-c4cnn(S(=O)(=O)C5CC5)c4)n3)cc2N[C@H]2CC[C@@H](C(C)(C)O)CC2)nc1", "System Name": "EGFR L858R/C797S (Homo sapiens, UniProt P00533, C797S/L858R)", "Result": "0.7 nM"}
{"Chemical Smiles": "O=S(=O)(C1CC1)n1cc(-c2nccc(Nc3cc(N[C@H]4CC[C@H](CCO)CC4)c(-c4ccc(C(F)F)cn4)cn3)n2)cn1", "System Name": "EGFR L858R/C797S (Homo sapiens, UniProt P00533, C797S/L858R)", "Result": "9160 nM"}

* * *

# System Name: EGFR del19/T790M/C797S (Homo sapiens, UniProt P00533, C797S/DEL746-750/T790M)
# Sequence (P00533 with tags, fused parts or gaps DEL746-750/T790M/C797S): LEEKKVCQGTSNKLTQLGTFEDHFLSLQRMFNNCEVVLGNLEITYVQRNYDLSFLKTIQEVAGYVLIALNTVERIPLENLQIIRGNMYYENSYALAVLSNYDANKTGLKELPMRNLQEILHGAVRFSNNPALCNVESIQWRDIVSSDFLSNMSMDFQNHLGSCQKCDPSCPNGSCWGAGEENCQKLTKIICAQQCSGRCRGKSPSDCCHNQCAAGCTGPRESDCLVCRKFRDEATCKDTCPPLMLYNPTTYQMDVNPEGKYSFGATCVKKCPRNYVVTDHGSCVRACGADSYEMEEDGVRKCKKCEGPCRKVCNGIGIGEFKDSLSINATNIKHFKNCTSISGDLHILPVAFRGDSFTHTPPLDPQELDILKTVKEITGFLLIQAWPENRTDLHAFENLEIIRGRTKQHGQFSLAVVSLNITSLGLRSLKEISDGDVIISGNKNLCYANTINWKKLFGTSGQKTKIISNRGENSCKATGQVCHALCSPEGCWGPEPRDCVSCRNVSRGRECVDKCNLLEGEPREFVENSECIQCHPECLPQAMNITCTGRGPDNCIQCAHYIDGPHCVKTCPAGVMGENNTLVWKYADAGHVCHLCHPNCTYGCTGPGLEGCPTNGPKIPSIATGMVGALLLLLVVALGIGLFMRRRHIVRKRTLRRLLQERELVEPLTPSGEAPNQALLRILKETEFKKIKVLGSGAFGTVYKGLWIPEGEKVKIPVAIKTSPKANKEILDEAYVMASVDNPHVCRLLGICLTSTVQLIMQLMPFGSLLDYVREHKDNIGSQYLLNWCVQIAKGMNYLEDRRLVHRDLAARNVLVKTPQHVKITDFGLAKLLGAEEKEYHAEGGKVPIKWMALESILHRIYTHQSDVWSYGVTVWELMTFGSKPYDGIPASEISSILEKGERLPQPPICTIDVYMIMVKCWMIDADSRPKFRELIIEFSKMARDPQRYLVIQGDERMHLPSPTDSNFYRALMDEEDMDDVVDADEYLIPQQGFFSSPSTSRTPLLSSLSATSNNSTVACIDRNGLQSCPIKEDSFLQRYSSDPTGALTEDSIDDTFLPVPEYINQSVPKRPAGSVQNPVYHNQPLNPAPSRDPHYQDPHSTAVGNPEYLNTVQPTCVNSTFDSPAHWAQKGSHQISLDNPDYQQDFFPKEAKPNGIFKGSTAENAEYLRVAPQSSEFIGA
# Protocol: Biochemical EGFR kinase assay (Lance Ultra TR-FRET), triple mutant del19/T790M/C797S
# Setup Conditions: ATP at Km; read-out: IC50 del19/T790M/C797S, Km ATP
# Method: Biochemical EGFR kinase assays were conducted using Lance Ultra time-resolved fluorescence resonance energy transfer (TR-FRET) technology from Perkin-Elmer. […] Each kinase reactions were incubated at room temperature for 1 hour and then stopped by the addition of 4 μL of stop solution (10 mM EDTA). […] After 60 minutes incubation at room temperature the LANCE signal was measured on an EnVision Multilabel Reader (Perkin-Elmer). […]
Value Type: IC50 (nM)

{"Compound": "O=S(=O)(C1CC1)n1cc(-c2nccc(Nc3cc(N[C@H]4CC[C@@H](CO)CC4)c(-c4cccc(F)n4)cn3)n2)cn1", "Unit Annotation": "nM", "Measured Number": 0.3}
{"Compound": "CC(C)(F)c1ccc(-c2cnc(Nc3ccnc(-c4cnn(S(=O)(=O)C5CC5)c4)n3)cc2NC2CCC(F)CC2)nc1 (stereo not drawn)", "Unit Annotation": "nM", "Measured Number": 15.1}
{"Compound": "CC(O)(c1ccc(-c2cnc(Nc3ccnc(-c4cnn(S(=O)(=O)C5CC5)c4)n3)cc2NC2CCC(F)CC2)nc1)C(F)(F)F (stereo not drawn) [Example 265]", "Unit Annotation": "nM", "Measured Number": 31}
{"Compound": "CC(C)(O)[C@H]1CC[C@@H](Nc2cc(Nc3ccnc(-c4cnn(S(=O)(=O)C5CC5)c4)n3)ncc2-c2ccc(OCCO)cn2)CC1", "Unit Annotation": "nM", "Measured Number": 1.3}
{"Compound": "CN1CCN(C(=O)c2ccc(-c3cnc(Nc4ccnc(-c5cnn(S(=O)(=O)C6CC6)c5)n4)cc3N[C@H]3CC[C@@H](C(C)(C)O)CC3)nc2)CC1", "Unit Annotation": "nM", "Measured Number": 0.4}
{"Compound": "O=S(=O)(C1CC1)n1cc(-c2nccc(Nc3cc(N[C@H]4CCC[C@H](CO)C4)c(-c4ccc(C(O)C(F)(F)F)cn4)cn3)n2)cn1 (stereo partly drawn)", "Unit Annotation": "nM", "Measured Number": 1.9}
{"Compound": "CC(C)(F)c1ccc(-c2cnc(Nc3ccnc(-c4cnn(S(=O)(=O)C5CC5)c4)n3)cc2N[C@H]2CC[C@@H](C(C)(C)O)CC2)nc1", "Unit Annotation": "nM", "Measured Number": 2.5}
{"Compound": "CC(C)(O)c1ccc(-c2cnc(Nc3ccnc(-c4cnn(S(=O)(=O)C5CC5)c4)n3)cc2NC2CCC(F)(F)CC2)nc1", "Unit Annotation": "nM", "Measured Number": 2.4}
{"Compound": "C[C@]1(O)CC[C@@H](Nc2cc(Nc3ccnc(-c4cnn(S(=O)(=O)C5CC5)c4)n3)ncc2-c2cnc(F)cn2)CC1", "Unit Annotation": "nM", "Measured Number": 2}
{"Compound": "CC(O)(c1ccc(-c2cnc(Nc3ccnc(-c4cnn(S(=O)(=O)C5CC5)c4)n3)cc2NC2CCC(F)CC2)nc1)C(F)(F)F (stereo not drawn) [Example 266]", "Unit Annotation": "nM", "Measured Number": 33}
{"Compound": "CC(C)(O)[C@H]1CC[C@@H](Nc2cc(Nc3ccnc(-c4cnn(S(=O)(=O)C5CC5)c4)n3)ncc2-c2ccc(S(=O)(=O)N3CCOCC3)cn2)CC1", "Unit Annotation": "nM", "Measured Number": 9.1}
{"Compound": "C[C@]1(O)CC[C@@H](Nc2cc(Nc3ccnc(-c4cnn(S(=O)(=O)C5CC5)c4)n3)ncc2-c2cc(NCCN3CCOCC3)ccn2)CC1", "Unit Annotation": "nM", "Measured Number": 2}
{"Compound": "CC(F)(F)c1ccc(-c2cnc(Nc3ccnc(-c4cnn(S(=O)(=O)C5CC5)c4)n3)cc2N[C@H]2CC[C@@H](CO)CC2)nc1", "Unit Annotation": "nM", "Measured Number": 2.3}
{"Compound": "CN1CCC(Oc2ccc(-c3cnc(Nc4ccnc(-c5cnn(S(=O)(=O)C6CC6)c5)n4)cc3N[C@H]3CC[C@@H](CO)CC3)nc2)CC1", "Unit Annotation": "nM", "Measured Number": 0.5}
{"Compound": "CN(C)S(=O)(=O)c1ccc(-c2cnc(Nc3ccnc(-c4cnn(S(=O)(=O)C5CC5)c4)n3)cc2N[C@H]2CC[C@@H](C(C)(C)O)CC2)nc1", "Unit Annotation": "nM", "Measured Number": 3.5}
{"Compound": "C[C@]1(O)CC[C@@H](Nc2cc(Nc3ccnc(-c4cnn(S(=O)(=O)C5CC5)c4)n3)ncc2-c2cccc(NCCO)n2)CC1", "Unit Annotation": "nM", "Measured Number": 0.1}
{"Compound": "CC(C)(O)c1ccc(-c2cnc(Nc3ccnc(-c4cnn(S(=O)(=O)C5CC5)c4)n3)cc2NC2CCCN(CCF)C2)nc1 (stereo not drawn)", "Unit Annotation": "nM", "Measured Number": 0.9}
{"Compound": "C[C@]1(O)CC[C@@H](Nc2cc(Nc3ccnc(-c4cnn(S(=O)(=O)C5CC5)c4)n3)ncc2-c2cccc(F)n2)CC1", "Unit Annotation": "nM", "Measured Number": 0.5}
{"Compound": "C[C@]1(O)CC[C@@H](Nc2cc(Nc3ccnc(-c4cnn(S(=O)(=O)C5CC5)c4)n3)ncc2-c2cnc(OC3CCN(CCF)CC3)cn2)CC1", "Unit Annotation": "nM", "Measured Number": 0.4}
{"Compound": "O=S(=O)(C1CC1)n1cc(-c2nccc(Nc3cc(N[C@H]4CC[C@@H](CO)CC4)c(-c4ccc(OCCO)cn4)cn3)n2)cn1", "Unit Annotation": "nM", "Measured Number": 0.6}
{"Compound": "CC(C)(O)c1ccc(-c2cnc(Nc3ccnc(-c4cnn(S(=O)(=O)C5CC5)c4)n3)cc2NC2CCN(CCF)CC2)nc1", "Unit Annotation": "nM", "Measured Number": 0.2}
{"Compound": "CN1CCC(Oc2ccc(-c3cnc(Nc4ccnc(-c5cnn(S(=O)(=O)C6CC6)c5)n4)cc3N[C@H]3CCC[C@H](CO)C3)nc2)CC1", "Unit Annotation": "nM", "Measured Number": 0.7}
{"Compound": "O=S(=O)(C1CC1)n1cc(-c2nccc(Nc3cc(N[C@H]4CC[C@@H](CO)CC4)c(-c4ccc(OC(F)(F)F)cn4)cn3)n2)cn1", "Unit Annotation": "nM", "Measured Number": 3.3}
{"Compound": "CC(C)(O)c1ccc(-c2cnc(Nc3ccnc(-c4cnn(S(=O)(=O)C5CC5)c4)n3)cc2N[C@H]2CC[C@@H](F)CC2)nc1", "Unit Annotation": "nM", "Measured Number": 1.8}
